Values compiled from PubChem BioAssay (NCI).

# Test system: CAKI-1 renal
# assayDetails: NCI tumour cell line growth inhibition, 48 h
measuredMetric: GI50

The cases that follow already have their GI50 on record.
>  <molecule>
O=C(CSC(c1ccccc1)c1ccccc1)N/N=C/c1cccc(Cl)c1

>  <measuredMetric>
GI50

>  <result>
23.4 µM

$$$$
>  <molecule>
CCOC(=O)/C=C/c1cc2cc(-c3csc4ccccc34)ccc2[nH]1

>  <measuredMetric>
GI50

>  <result>
3.13 µM

$$$$
>  <molecule>
O=C(Nc1cccc(Oc2nnc(Cl)c3ccccc23)c1)Nc1ccc(Cl)c(C(F)(F)F)c1

>  <measuredMetric>
GI50

>  <result>
0.832 µM

$$$$

Pending compound:
Data request: Provide only the value of recorded GI50 for O=c1cc(N2CCNCC2)oc2c(-c3ccccc3)cccc12
Data returned: 26.8 µM

###

# System: LOX IMVI melanoma
# assayDetails: NCI tumour cell line growth inhibition, 48 h
Record form. Attribute: TGI. Fill in for each entry.

>  <molecule>
Oc1c2c(c3c4c1N=CC=4CCN=3)-c1c(Br)cc(Br)cc1CCN2

>  <measuredOn>
LOX IMVI melanoma

>  <measuredMetric>
TGI

>  <result>
4.06 µM

$$$$

Provide each entry's TGI from the list below.
1. C=CCC(CC=O)(C(=O)OCC)C(=O)OCC
2. O=c1[nH]c(=O)n(C2OC(CO)C(O)C2O)c2ccsc12 (stereo not drawn)
3. O1C2C1C1OC1C1OC1C1OC21 (stereo not drawn)

Data returned:
1. > 100 µM
2. > 100 µM
3. > 100 µM

###

# System: RPMI-8226 leukemia
# assayDetails: NCI tumour cell line growth inhibition, 48 h
Record form. Attribute: TGI. Fill in for each entry.

The cases that follow already have their TGI on record.
>  <compound>
Cc1ccc([N+](=O)[O-])cc1NC(=O)C(=O)C(C(=O)c1ccccc1F)C1OC(=O)c2ccccc21 (stereo not given)

>  <TGI>
> 100 µM

$$$$
>  <compound>
CC(=O)OCC(=O)O[C@@H]1C[C@]2(C(C)C)O[C@@]1(C)[C@@H]1CC[C@@H](C)[C@H]1[C@@H]2OC(=O)/C=C/c1ccccc1

>  <TGI>
> 100 µM

$$$$
>  <compound>
NCCCCN(CCCN)C(=O)c1ccccc1

>  <TGI>
> 100 µM

$$$$
>  <compound>
COc1ccc2c(c1)c1c(n2CCN(C)C)-c2cccc(OC)c2CC1

>  <TGI>
18.2 µM

$$$$

Pending compound:
Data request: Provide only the value of recorded TGI for N/C(=N\N=C\c1c[nH]c2cc(C(F)(F)F)ccc2c1=O)NO
Data returned: > 10 µM

###

# Tested on: HS 578T breast
# assayDetails: NCI tumour cell line growth inhibition, 48 h
Record form. Attribute: TGI. Fill in for each entry.

The cases that follow already have their TGI on record.
>  <molecule>
CN(C)CCNC(=O)Cn1cc([N+](=O)[O-])c(=O)c2ccccc21

>  <result>
> 100 µM

$$$$
>  <molecule>
CC(=O)O[C@H]1CC[C@@]2(C)C(=CC[C@@H]3[C@@H]2CC[C@]2(C)Nc4c(cnn4S(C)(=O)=O)C[C@@H]32)C1

>  <result>
> 100 µM

$$$$
>  <molecule>
CN(C)c1ccc(/C=C(\C#N)c2nc3ccccc3n2C)cc1

>  <result>
> 26.5 µM

$$$$

Pending compound:
Data request: Provide only the value of recorded TGI for O=C1Nc2ccccc2S/C1=C\c1cccc(C(F)(F)F)c1
Data returned: > 100 µM

###

Record form. Attribute: TGI. Fill in for each entry.
# Tested on: HS 578T breast
# assayDetails: NCI tumour cell line growth inhibition, 48 h

Provide each entry's TGI from the list below.
1. Cc1n[nH]c(=O)n1/N=C/c1cccs1
2. O=C(O)[C@@H]1CCC(=O)N1C(c1ccc2c(c1)OCO2)c1ccc2c(c1)OCO2
3. N=c1nc2n(cc1F)[C@@H]1O[C@H](CO)[C@@H](O)[C@@H]1O2

Data returned:
1: > 100 µM; 2: > 100 µM; 3: > 100 µM

###

Record form. Attribute: TGI. Fill in for each entry.
# Tested on: A549 NSCLC
# assayDetails: NCI tumour cell line growth inhibition, 48 h

>  <molecule>
O=C1C(c2c(O)[nH]c3ccc(S(=O)(=O)O)cc23)=Nc2ccc(Br)cc21

>  <measuredOn>
A549 NSCLC

>  <TGI>
> 100 µM

$$$$
>  <molecule>
O=C(O)c1ccccc1CC1Cc2ccc3c(c2C1=O)CCC3 (stereo unspecified)

>  <measuredOn>
A549 NSCLC

>  <TGI>
> 100 µM

$$$$
>  <molecule>
Cc1nc2ccccc2c(=O)n1NC(=O)c1ccc([N+](=O)[O-])cc1

>  <measuredOn>
A549 NSCLC

>  <TGI>
> 100 µM

$$$$
>  <molecule>
Oc1ccc(O)c(-c2cc(-c3ccccc3)nn2-c2ccccc2)c1

>  <measuredOn>
A549 NSCLC

>  <TGI>
80.9 µM

$$$$

Provide each entry's TGI from the list below.
1. C=C(C)C1CC2(C)C(C)CC(OC(=O)/C(C)=C\C)CC2C(OC(=O)/C(C)=C\C)C1O (stereo unspecified)
2. CC(=O)OC(C)c1cc2c(s1)C(=O)c1scc(C(C)OC(C)=O)c1C2=O (stereo unspecified)

Data returned:
1. > 100 µM
2. 4.06 µM

###

# Test system: HCT-116 colon
# assayDetails: NCI tumour cell line growth inhibition, 48 h
Record form. Attribute: TGI. Fill in for each entry.
One number for each entry, in µM.

The cases that follow already have their TGI on record.
>  <compound>
N#C/C(=C\c1ccc(O)c(O)c1)C(=O)NC1CCC(CC2CCC(NC(=O)/C(C#N)=C/c3ccc(O)c(O)c3)CC2)CC1 (stereo not given)

>  <TGI, µM>
0.642

$$$$
>  <compound>
O=[N+]([O-])c1ccc2c(c1)Nc1c3ccccc3nc3cccc-2c13

>  <TGI, µM>
28.8

$$$$

Provide each entry's TGI from the list below.
1. CCOC(=O)Nc1cc2c(c(N)n1)N=C(c1ccccc1)[C@H](C)N2
2. N#Cc1ccc(N2Cc3ccccc3OC3=C2C(=O)c2c(O)ccc(O)c2C3=O)cc1

Data returned:
1: 0.0173; 2: 0.35

###

# Tested on: M14 melanoma
# assayDetails: NCI tumour cell line growth inhibition, 48 h
Record form. Attribute: TGI. Fill in for each entry.

The cases that follow already have their TGI on record.
>  <molecule>
N#Cc1ccc(N2Cc3ccccc3OC3=C2C(=O)c2c(O)ccc(O)c2C3=O)cc1

>  <measuredMetric>
TGI

>  <result>
0.496 µM

$$$$
>  <molecule>
CN(C)c1ccc(/C=C(\C#N)c2nc3ccccc3n2C)cc1

>  <measuredMetric>
TGI

>  <result>
> 64.9 µM

$$$$

Data request: Provide only the value of recorded TGI for CCOC(=O)C1=C(O)CSC1=Nc1ccccc1
Data returned: > 100 µM

###

Record form. Attribute: TGI. Fill in for each entry.
# Tested on: NCI-H522 lung
# assayDetails: NCI tumour cell line growth inhibition, 48 h

The cases that follow already have their TGI on record.
>  <molecule>
C=C(C)C1CC2(C)C(C)CC(OC(=O)/C(C)=C\C)CC2C(OC(=O)/C(C)=C\C)C1O (stereo not drawn)

>  <TGI>
> 100 µM

$$$$
>  <molecule>
C[C@]12CCc3nonc3C1CC[C@@H]1C2CC[C@]2(C)NC(=O)CCC12 (stereo partly drawn)

>  <TGI>
> 100 µM

$$$$
>  <molecule>
C1C[S][Ge]2([S]CCO1)[S]CCOCC[S]2

>  <TGI>
> 100 µM

$$$$
>  <molecule>
CCOC(=O)[C@H]1Nc2c(cccc2[N+](=O)[O-])[C@H]2OCC[C@@H]12

>  <TGI>
> 100 µM

$$$$
>  <molecule>
c1ccc(-c2cc(C3CO3)c3ccccc3n2)cc1 (stereo not drawn)

>  <TGI>
14.6 µM

$$$$

Provide each entry's TGI from the list below.
1. C[C@@H]1CC[C@@H]2[C@@H]1[C@H](OC(=O)/C=C/c1ccccc1)[C@]1(C3CCCCC3)C[C@@H](NC(=O)CO)[C@@]2(C)O1
2. CCOC(=O)Nc1cc2c(c(N)n1)N=C(c1ccccc1)[C@H](C)N2
3. CO/N=C(\C)c1cccc(Nc2cc(-c3ccccc3)nc3c(O)cccc23)c1
4. Cc1ccc([N+](=O)[O-])cc1NC(=O)C(=O)C(C(=O)c1ccccc1F)C1OC(=O)c2ccccc21 (stereo not drawn)
5. Cn1nnnc1N/N=C/c1ccccc1
6. O=C(Nc1ccc(Oc2ccc3nc(NC(=O)c4ccccc4)[nH]c3c2)cc1)Nc1cc(C(F)(F)F)ccc1F
7. C=CCC(CC=O)(C(=O)OCC)C(=O)OCC
8. COC(=O)[C@H]1C[C@H]1NC(=O)C(CC(=O)OCc1ccccc1)NC(=O)OCc1ccccc1 (stereo partly drawn)

Data returned:
33.6 µM
< 0.0001 µM
6.95 µM
59.2 µM
> 10 µM
> 14.9 µM
> 100 µM
> 100 µM

Provide each entry's TGI from the list below.
1. CN(Cc1cnc2nc(N)nc(N)c2n1)c1ccc(C(=O)NCS(=O)(=O)O)cc1
2. Cc1cccc(/C=C2\CCCc3ccccc3C2=O)c1
3. CC(=O)Nc1ccc(CNc2cc(=O)n(C)c(=O)[nH]2)cc1
4. O=C(N/C(=C\c1cccc([N+](=O)[O-])c1)c1nc2[nH]c(=S)[nH]c(=O)c2[nH]1)c1ccccc1

Data returned:
["> 100 µM", "33.1 µM", "> 100 µM", "> 100 µM"]
